Examples of compounds with documented ED (50 mmHg) follow.
system: blood pressure; test: Effects on Blood Pressure and Heart Rate in the Anesthetized Cat (Test D); format: in vivo; conditions: Felis catus, iv, i.v. 0.01 to 10.0 mcg/kg, scored on hypotension, read-out: Activity value, Test D: Normal Feline Blood Pressure and Heart Rate (ED50 mmHg)

Observe how each entry below is paired with its result.
CC1([C@H](O)/C=C/[C@H]2[C@H](O)CC(=O)[C@@H]2CCCCCCCO)CCC1	> 0.0101 mg/kg
CCC1CC([C@@H](O)/C=C/[C@H]2[C@H](O)CC(=O)[C@@H]2CCCCCCO)C1 (relative stereo)	> 0.0101 mg/kg
CCC1CC(C)([C@@H](O)/C=C/[C@H]2[C@H](O)CC(=O)[C@@H]2CCCCCCC(=O)OC)C1 (some centres unmarked)	0.00101 to 0.01 mg/kg
CCC1CC(C)([C@H](O)/C=C/[C@H]2[C@H](O)CC(=O)[C@@H]2CCCCCCC(=O)OC)C1 (some centres unmarked)	0.00101 to 0.01 mg/kg
COC(=O)CCCCCC[C@H]1C(=O)C[C@@H](O)[C@@H]1/C=C/[C@@H](O)C1(C)CCC1	0.00101 to 0.01 mg/kg

Here's the next entry for you.
Query :: For blood pressure, provide ED (50 mmHg) of COC(=O)CCCCCC[C@H]1C(=O)C[C@@H](O)[C@@H]1/C=C/[C@H](O)C1(C)CCC1 please.
Result :: > 0.0101 mg/kg

Origin of measurements: patent US4220795A
